QUANTITY NAME: melting point (°C)

1. Cc1ccc(S(=O)(=O)N2C[C@H](O)C[C@H]2CO)cc1: 127

[I] O=C(NN=CC=Cc1ccc([N+](=O)[O-])o1)c1cc2ccccc2cc1O
[II] O=C(c1ccccc1O)c1cccc2[nH]ccc12
Q: Two entries are listed, I and II . Which one carries the higher melting point? Answer = label.
A: I
(I: 259 °C, II: 165 °C)

---

QUANTITY NAME: melting point

Worked cases, answers included:
1) Cn1c(C(F)(F)F)ccc(-c2cc(CBr)c(Cl)cc2F)c1=O: 117 to 118 °C
2) CC(=O)C1=CCC2C3CCC4CC(OS(=O)(=O)c5ccc(C)cc5)CCC4(C)C3CCC12C (stereo unspecified): 146 to 148 °C
3) Cc1ccc(-c2cc3cc(-c4ccccc4)ccc3o2)cc1: 156 to 158 °C

Q: Can you share its melting point? I mean this molecule: Nc1ccc(Sc2ccccc2)cc1C(F)(F)F
A: 63 to 66.5 °C

Q: // lookup melting point for CC(=O)c1ccc(SC(=O)N(C)C)cc1OCC(=O)O
A: 173 to 174 °C

Q: What value of melting point has been recorded for this entry: Cc1ccc(S(=O)(=O)NC(=O)C(C)(NC(=O)NN(C)C)C(C)C)cc1 (stereo unspecified)
A: 96 to 98 °C

---

Recorded melting point by entry

Previously resolved entries follow.
1. NC(=O)/C=C1/c2cc(F)ccc2CC1Br (stereo not drawn): 162 to 163 °C
2. O=C1C2CCCCC2C(=O)N1CCS (stereo not drawn): 79 to 80 °C

Then this molecule:
Q: What value of measured melting point is listed for CC(Oc1ccc(Oc2ccc(C(F)(F)F)cc2)cc1)C(N)=O (stereo not drawn) ?
A: 147 to 149 °C

---

Below, each entry is listed alongside its reported melting point.

Use the examples below as a reference point.
1) Cc1ccc2cc(C(=O)NC3(C(=O)O)CCCC3)sc2c1: 214 to 217 °C
2) CS(=O)(=O)c1ccc(-c2[nH]nc(OC3CCCC3=O)c2-c2ccc(F)cc2)cc1 (stereo unspecified): 96 to 99 °C
3) CCCn1nc2c(N)nc3ccccc3c2c1CC(C)(C)NC(=O)CC: 158 to 159 °C
4) CC(=O)Oc1cccc2c(-c3ccccc3)c3cccc(OC(C)=O)c3c(OC(C)=O)c12: 193 to 194 °C
5) CC(Cn1ncc2ccc(OCc3ccccc3)cc21)O[Si](C)(C)C(C)(C)C (stereo unspecified): 56 to 58 °C

Turning to the following molecule.
Q: Requested field: melting point. Item: N#Cc1ccc(OCc2ccc(F)cc2)cc1
A: 82 to 83 °C

---

QUANTITY NAME: melting point (°C)

1) COC(=O)c1c(Oc2cccc(C)c2C)nn(C(=O)OC)c1C: 115

[1] O=C(O)CCCCC(=O)Nc1ccc(C(=O)NN=C2C(=O)Nc3ccc(I)cc32)cc1
[2] O=C(O)C(Oc1ccc(F)c(C(F)(F)F)c1)c1ccc(Cl)cc1 (configuration not stated)
Q: Of 1 and 2 , which carries the smaller reported melting point figure? Response format: the label of the selected entry.
A: 2

---

QUANTITY NAME: melting point

Answered cases to consult:
1) O=[N+]([O-])c1ccccc1OCC(O)CO (centres undefined): 96 °C
2) O=[N+]([O-])c1nccn1CCCl: 85 to 87 °C

Q: Look up melting point: CC1CCCC(C)N1Cc1ccc2cc(NC(=O)c3ccc(-c4ccc(Cl)cc4)cc3)ccc2c1 (centres undefined)
A: 220 to 222 °C

Q: Requested field: melting point. Item: O=C1C=C(C2CCC(c3ccc(Cl)cc3)CC2)C(=O)c2ccccc21 (centres undefined)
A: 147 to 149 °C
